# INHIBITION annotations
# Test system: Plasmodium berghei
# METHOD_NOTES: Screen against P. berghei liver stage (PbLuc), transformed with Luciferase, at 10uM
# Assay type: functional, HepG2
# ASSAY_CONTEXT: tested at 10 uM
In all, about 69,000 compounds went through this assay and about 8,600 (12%) showed an effect of 50% or more. Only a selection was taken, and strong results are over-represented in it overall.
QUANTITY_KIND: INHIBITION (%)

COMPOUND: CC(C)c1noc(C2CCCN2S(=O)(=O)N2CCCCCC2)n1 (configuration not stated)
TGT: Plasmodium berghei
MEASURED_VALUE: -31.7
--
COMPOUND: CCn1c(CC2CCN(C(=O)c3cc(C(C)C)n[nH]3)CC2)n[nH]c1=O
TGT: Plasmodium berghei
MEASURED_VALUE: 41.5
--
COMPOUND: O=C(C1CC1)N1CCC2(CCN(Cc3cccc(F)c3)CC2)CC1
TGT: Plasmodium berghei
MEASURED_VALUE: -13.4
--
COMPOUND: COc1ccccc1C(=O)NCCCN1CCCC1C(=O)N(C)C (configuration not stated)
TGT: Plasmodium berghei
MEASURED_VALUE: -1.85
--
COMPOUND: CCS(=O)(=O)N1CCCCC1c1nc(C)no1 (configuration not stated)
TGT: Plasmodium berghei
MEASURED_VALUE: 20.1
--
COMPOUND: CCc1c(C)sc2c1c(N)nc(=O)n2CCN1CCOCC1
TGT: Plasmodium berghei
MEASURED_VALUE: -39.7
--
COMPOUND: Cc1cccc(C2(C(=O)NCC3CCN(CC(F)(F)F)C3)CCC2)c1 (configuration not stated)
TGT: Plasmodium berghei
MEASURED_VALUE: 5.03
--
COMPOUND: O=C(c1ccnc(-n2ccnc2)c1)N1CCCC(n2cccn2)C1 (configuration not stated)
TGT: Plasmodium berghei
MEASURED_VALUE: 36.1
--
COMPOUND: CCN(CC)C(=O)CSc1sc2c(O)cc(=O)[nH]c2c1C(N)=O
TGT: Plasmodium berghei
MEASURED_VALUE: 4.07
--
COMPOUND: CN(Cc1cnn(C)c1)CC(O)c1ccc2c(c1)OCO2 (configuration not stated)
TGT: Plasmodium berghei
MEASURED_VALUE: 46.6
--
COMPOUND: CC(=O)N1CCCN(C(=O)NCc2ccc(Cl)s2)CC1
TGT: Plasmodium berghei
MEASURED_VALUE: 25.6
--
COMPOUND: COc1cc(Cl)cc(CN2CCCC(N3CCOCC3)C2)c1OC (configuration not stated)
TGT: Plasmodium berghei
MEASURED_VALUE: 15.7
--
COMPOUND: O=C(c1ccc2c(c1)CCC2)N1CCC(c2n[nH]c(C3CC3)n2)CC1
TGT: Plasmodium berghei
MEASURED_VALUE: -19.6
--
COMPOUND: Cc1nc2c(c(NCCc3nc(C)c(Cl)s3)n1)CCNCC2
TGT: Plasmodium berghei
MEASURED_VALUE: 18.5
--
COMPOUND: Cc1nn(C)cc1NC(=O)CN1CCC(Oc2cnccn2)CC1
TGT: Plasmodium berghei
MEASURED_VALUE: -2.09
--
COMPOUND: Cc1ccccc1C(N)c1ccncc1 (configuration not stated)
TGT: Plasmodium berghei
MEASURED_VALUE: -1.38
--
COMPOUND: CCc1cc(NCCCc2nc(C)no2)nc(-c2ccncc2)n1
TGT: Plasmodium berghei
MEASURED_VALUE: 17.6
--
COMPOUND: COc1cc(Cl)cc(CN2CCCC(N3CCCC3)C2)c1OC (configuration not stated)
TGT: Plasmodium berghei
MEASURED_VALUE: 77.6
--
COMPOUND: O=C(Nc1cc(C(F)(F)F)c[nH]c1=O)C1CCCNC1 (configuration not stated)
TGT: Plasmodium berghei
MEASURED_VALUE: 42.6
--
COMPOUND: c1csc(CN2CCC3(CC2)CCN(CC2CC2)CC3)n1
TGT: Plasmodium berghei
MEASURED_VALUE: 23.3
--
COMPOUND: CCS(=O)(=O)N1CCCCC1c1nc(C(C)C)no1 (configuration not stated)
TGT: Plasmodium berghei
MEASURED_VALUE: 57.3
--
COMPOUND: CCn1nccc1CNC(=O)C1CCCO1 (configuration not stated)
TGT: Plasmodium berghei
MEASURED_VALUE: 17
--
COMPOUND: CCc1nc(C2CCCN2C(=O)CCCn2cncn2)no1 (configuration not stated)
TGT: Plasmodium berghei
MEASURED_VALUE: -59.4
--
COMPOUND: Fc1ccc(-c2nnc(CN3CCCC(Cn4cncn4)C3)o2)cc1 (configuration not stated)
TGT: Plasmodium berghei
MEASURED_VALUE: -105
--
COMPOUND: OCCN1CCN(Cc2cc(Cl)cc3cccnc23)CC1
TGT: Plasmodium berghei
MEASURED_VALUE: 42.7
--
COMPOUND: CC(C)(C)c1nnc(CN(Cc2cccs2)CC2CCCO2)o1 (configuration not stated)
TGT: Plasmodium berghei
MEASURED_VALUE: 44
--
COMPOUND: CC(C)C(NC(=O)Cc1ccccc1)C(=O)NCc1ccc(O)nc1 (configuration not stated)
TGT: Plasmodium berghei
MEASURED_VALUE: 0.991
--
COMPOUND: Cc1nc(CN2C[C@@H]3CN(C(=O)c4ccnnc4)C[C@@H]3C2=O)cs1
TGT: Plasmodium berghei
MEASURED_VALUE: 13.6
--
COMPOUND: Cc1nc2c(c(NCCc3nccs3)n1)CCN(CC1CC1)CC2
TGT: Plasmodium berghei
MEASURED_VALUE: 64.1
--
COMPOUND: CN(C)CC1CN(Cc2cc(Cl)cc3cccnc23)CCO1 (configuration not stated)
TGT: Plasmodium berghei
MEASURED_VALUE: 23.4
--
COMPOUND: Cc1c(S(=O)(=O)N2CCOCC2)cc2c(C)cc(=O)n3c2c1CCC3
TGT: Plasmodium berghei
MEASURED_VALUE: 2.45
--
COMPOUND: COCCC(=O)N1CC2(CCN(Cc3ccoc3)C2)C1
TGT: Plasmodium berghei
MEASURED_VALUE: 54.6
--
COMPOUND: O=C(NCCn1nc2ccccn2c1=O)c1scnc1Cl
TGT: Plasmodium berghei
MEASURED_VALUE: 17.02
--
COMPOUND: CCOc1ccc(Cl)c(C(=O)N2CCCC(N3CCCC3)C2)n1 (configuration not stated)
TGT: Plasmodium berghei
MEASURED_VALUE: 23.3
--
COMPOUND: Cc1ccc(CN2CCCC3(CCN(Cc4ccoc4)CC3)C2)cc1
TGT: Plasmodium berghei
MEASURED_VALUE: 82.8
--
COMPOUND: CCN1C[C@H]2[C@@H](C1)N(S(=O)(=O)c1cccnc1)CC[C@H]2OC
TGT: Plasmodium berghei
MEASURED_VALUE: 59.1
--
COMPOUND: Nc1nc2c(c(NCc3nccs3)n1)CCN(CC1CCCC1)CC2
TGT: Plasmodium berghei
MEASURED_VALUE: 76.6
--
COMPOUND: COCCC(=O)N1CC2(CCN(Cc3ccncc3)CC2)C1
TGT: Plasmodium berghei
MEASURED_VALUE: 47.4
--
COMPOUND: Cc1cc(C)c(CNC(=O)NC(C)c2ccc3c(c2)CCC3)c(=O)[nH]1 (configuration not stated)
TGT: Plasmodium berghei
MEASURED_VALUE: 48.2
--
COMPOUND: CCN1C[C@@H]2[C@@H](OC)CCN(S(=O)(=O)c3cccnc3)[C@@H]2C1
TGT: Plasmodium berghei
MEASURED_VALUE: 26.4
--
COMPOUND: Cc1cc(C)n(CC(=O)N2CCCCC2CCc2cccs2)c(=O)n1 (configuration not stated)
TGT: Plasmodium berghei
MEASURED_VALUE: 31.2
--
COMPOUND: Cc1ccc(C(C)NCc2c(C(C)C)nn(C)c2N2CCOCC2)o1 (configuration not stated)
TGT: Plasmodium berghei
MEASURED_VALUE: 7.27
--
COMPOUND: CCN1C[C@@H]2[C@@H](OC)CCN(S(=O)(=O)c3ccccc3)[C@@H]2C1
TGT: Plasmodium berghei
MEASURED_VALUE: 17.6
--
COMPOUND: CCN1CC2(CC1=O)CN(C(=O)NC(C)C)CCN(C(=O)C(C)C)C2 (configuration not stated)
TGT: Plasmodium berghei
MEASURED_VALUE: 30.5
--
COMPOUND: Cc1ccc(CN2CCC3(CC2)CCN(Cc2ccoc2)CC3)cc1
TGT: Plasmodium berghei
MEASURED_VALUE: -34.6
--
COMPOUND: O=C(C1CC=CC1)N1CCC2(CCN(Cc3cccc(F)c3)CC2)C1
TGT: Plasmodium berghei
MEASURED_VALUE: 59.8
--
COMPOUND: CCc1ccc2c(C3CN(CC4CCC4)C3)ncn2c1
TGT: Plasmodium berghei
MEASURED_VALUE: 27.5

----------
# Test system: Plasmodium berghei
# METHOD_NOTES: Screen against P. berghei liver stage (PbLuc), transformed with Luciferase, at 10uM
# Assay type: functional, HepG2
# ASSAY_CONTEXT: tested at 10 uM
Among all 69,000 compounds or so, about 8,600 (12%) showed an effect of 50% or more. Shown is part of a subset that was picked to be rich in strong results.
Catalogue of INHIBITION values

COMPOUND: CCn1cc(Cn2cc(Cl)c(N)n2)c(C)n1
TGT: Plasmodium berghei
INHIBITION [%]: -18.8
//
COMPOUND: Cc1noc(C)c1CC(=O)NCC(C(C)C)N1CCOCC1 (configuration not stated)
TGT: Plasmodium berghei
INHIBITION [%]: 58.2
//
COMPOUND: COc1cccc(CN(C)C(=O)c2csc(-c3nnc[nH]3)n2)c1
TGT: Plasmodium berghei
INHIBITION [%]: 40.9
//
COMPOUND: CN(CCCOc1ccccc1)C(=O)c1csc(-c2nnc[nH]2)n1
TGT: Plasmodium berghei
INHIBITION [%]: 53.9
//
COMPOUND: CCN(CC)[C@H]1C[C@@H](Cc2cc(CO)on2)C1(C)C
TGT: Plasmodium berghei
INHIBITION [%]: 17.4
//
COMPOUND: CCCc1nnc(NCCc2noc(C3CC3)n2)o1
TGT: Plasmodium berghei
INHIBITION [%]: 16.5
//
COMPOUND: CCNC(=O)NC(c1ccc(C)cc1)c1cccc(S(C)(=O)=O)c1 (configuration not stated)
TGT: Plasmodium berghei
INHIBITION [%]: 31.7
//
COMPOUND: COc1c[nH]c(C(=O)Nc2nc(C(C)(C)C)cs2)cc1=O
TGT: Plasmodium berghei
INHIBITION [%]: 29.4
//
COMPOUND: CCC(=O)c1ccccc1NN1c2ccccc2C(=O)C1(C)OC (configuration not stated)
TGT: Plasmodium berghei
INHIBITION [%]: 17.6
//
COMPOUND: CCn1ncc(Cn2cc(Cl)c(N)n2)c1C
TGT: Plasmodium berghei
INHIBITION [%]: 51.5
//
COMPOUND: CN(C)[C@H]1C[C@@H](Cc2cc(CO)on2)C1(C)C
TGT: Plasmodium berghei
INHIBITION [%]: -17.1
//
COMPOUND: CN(Cc1cc(C[C@@H]2C[C@H](N)C2(C)C)no1)c1ccccc1
TGT: Plasmodium berghei
INHIBITION [%]: 54.3

Value source: ChEMBL document CHEMBL4513216
